Origin of values: the array DNA melting data of Ke et al. (doi:10.1101/2024.01.08.574731)

Test: melting temperature; fluorescence melt of hairpins on a sequencing array, two-state fit, raised by 9.35 °C to match UV melts
Conditions: sodium 0.088 M
MEASUREMENT_TYPE: Tm (°C)
All answers are understood in °C, so give the number only.

The following sequences have reported results that may help.
GATTGAGGAAACTCAATC (((((((....))))))): 53.6
GATCCAGGCTTGGATC ((((((....)))))): 54.8
GACCTAGGAAACTAGGCC (.(((((....))))).): 39.5

Q: Quick check: Tm of GGTCCCGAAAGGGTCACC ((((((....)))..))) ?
Ans: 39.4

Q: Same read-out for GATCGAAGAGTCGATC ((((((....)))))) ?
Ans: 47.5

Q: What would you report for GTGCCCGAAAGGGCCCAC ((((((....)))..))) ?
Ans: 41

Q: Can you check GTTGGTGGAAACACCAGC (.(((((....))))).) next?
Ans: 50.6

Q: One more sequence: GAAACCGGAAACGGTTCC (.(((((....))))).)
Ans: 41.4

Q: What do you get for GATCACAAGTGTGATC ((((((....)))))) ?
Ans: 56.4

Q: Please give the result for GATCGGCTATCCGATC ((((((....)))))) too.
Ans: 55.8

Q: Also, GCCATCGAAAGATAGGC ((((((....))).))) please.
Ans: 50.1

Q: One more sequence: GTGTAGCCGAAAGGCCAC (((..(((....))))))
Ans: 47

###

Assay: folding enthalpy; higher = less favourable; fluorescence melt of hairpins on a sequencing array, two-state fit
Conditions: sodium 0.088 M
MEASUREMENT_TYPE: folding enthalpy (kcal/mol)
Field: numeric (kcal/mol). Do not append units.

GGGCTCGGAAACGAACCC (((.(((....))).))): -46.9

Q: Entry GATACGCGAAAGCGATC (((.(((....)))))) has what folding enthalpy?
Ans: -13.1

Q: Queued: GATCAGGTCTCTGATC ((((((....))))))
Ans: -50.3

Q: Same read-out for GTCAGGGGAAACCCTGGC (.(((((....))))).) ?
Ans: -27.7

Q: And then GGCAGTGGAAACACCACC ((..(((....)))..)) , what is it?
Ans: -13.2

###

Assay: melting temperature; fluorescence melt of hairpins on a sequencing array, two-state fit, raised by 9.35 °C to match UV melts
Conditions: sodium 0.088 M
MEASUREMENT_TYPE: Tm (°C)
Entry rule: numbers only, all in °C.

Recorded results for 5 sequences are shown here.
GATCCGTACCCGGATC ((((((....)))))): 56.4
GCATAGCGAAAGCTTGGC ((..(((....)))..)): 41.9
GGGCACGAAAGTGTGCCC ((((((....)))..))): 64.5
GTGGATACGAAAGTACAC (((..(((....)))))): 36.8
GTACAGCGAAAGCTTAC (((.(((....)))))): 38.1

Now, please, on to the next sequence.
Q: Request the reported Tm associated with GCGGATCGAAAGATCGC (((.(((....))))))
Ans: 58.1

###

Test: melting temperature; fluorescence melt of hairpins on a sequencing array, two-state fit, raised by 9.35 °C to match UV melts
Conditions: sodium 0.088 M
Each entry below carries its recorded Tm.
Could you give me the number in °C? Just the number is fine.

Solved cases (8 shown):
GGTAAACCGAAAGGTACC (((..(((....)))))): 40.1
GATCGAGAATTCGATC ((((((....)))))): 57.4
GTCGACGAAAGTCGGGAC ((((((....)))..))): 39.1
GCTTGGGGAAACCCAAAC (.(((((....))))).): 39.3
GTCGGCCGAAAGGCGGAC (((.(((....))).))): 67.8
GACTAGGCGAAAGCCGTC (((..(((....)))))): 50.4
GCGTCGGACGC ((((...)))): 51.7
GTCTCCGGAAACGGAAAC ((.((((....)))).)): 36.3

Q: Which Tm value is on record for GCGAAAGGTCGC ((((....)))) ?
Ans: 41.4

Q: Request: GGAGTCGAAAGACGTCC ((((((....))).)))
Ans: 46

Q: Now consider GTTACACGAAAGTGAAC (((.(((....)))))) and answer again.
Ans: 36.7

Q: Try GTCCCAGGAAACTGGAAC ((.((((....)))).)) next.
Ans: 35.8

###

Experiment: melting temperature; fluorescence melt of hairpins on a sequencing array, two-state fit, raised by 9.35 °C to match UV melts
Details: sodium 0.088 M
MEASUREMENT_TYPE: Tm (°C)
Form entry: value (°C) — number only.

Worked cases, Tm given:
GATCATCTTAATGATC ((((((....)))))): 49
GATCCGCGTTCGGATC ((((((....)))))): 59
GATCCCCCGAGGGATC ((((((....)))))): 62.1
GAATGGGAAACCATTC ((((((....)))))): 51.7
GGCTCCGAAAGGATGCC ((((((....))).))): 62.6

Q: Request the reported Tm associated with GATCTCTCTTGAGATC ((((((....))))))
Ans: 53.5

###

Assay: melting temperature; fluorescence melt of hairpins on a sequencing array, two-state fit, raised by 9.35 °C to match UV melts
Conditions: sodium 0.088 M
The class of a record is decided solely by its measured Tm; consult class A: < 50 °C; class B: ≥ 50 °C and < 60 °C; class C: ≥ 60 °C

Some entries whose results are on file:
GATCTGGGCGCAGATC ((((((....)))))): class B
GGGCAAGCGAAAGCTCCC (((..(((....)))))): class A
GCGGATAACCGC ((((....)))): class B
GCAGTTGGAAACAACTAC (.(((((....))))).): class A
GCGGCTTCCGC ((((...)))): class B
GATCGCCCGCGCGATC ((((((....)))))): class C

Switching to the query record.
Q: State the class of the sequence shown: GCAATTGGAAACAATCGC ((.((((....)))).))
Ans: class A

###

Measured Tm, listed per entry.
Assay: melting temperature; fluorescence melt of hairpins on a sequencing array, two-state fit, raised by 9.35 °C to match UV melts
Settings: sodium 0.088 M
Could you write the number and then its unit?

Worked set:
CGAGCGGAAACGCCTCG ((((((....))).))): 52.3 °C
GCCTTGCGAAAGCTTGGC (((..((....))..))): 60 °C
GTAGAGGGAAACCTCCAC ((.((((....)))).)): 31.2 °C
GATCCCGAAAGGGTATC ((((((....))).))): 45.5 °C
GAGTGCGAAAGCAGTCTC ((((((....)))..))): 58.1 °C

Q: Tell me the measured Tm of GATTTCCGAAAGGAATC (((.(((....)))))) , please.
Ans: 42.9 °C

Q: Input CGGTCGGAAACGAGCCCG ((((((....)))..)))
Ans: 37.5 °C

Q: Another sequence to look at: GGCCCGCGAAAGCGTGCC (((.(((....))).)))
Ans: 67.3 °C

Q: Again, but for GATTCTGGAAACAGAACC (.(((((....))))).)
Ans: 33.6 °C

Q: Another sequence: CGACACCGGAAACGGTCG (((..(((....))))))
Ans: 42 °C

Q: Same question for GAGACAGGAAACTGCCTC (((.(((....))).))) please.
Ans: 42.3 °C

Q: Then what about the sequence GATCTTATAGAAGATC ((((((....)))))) ?
Ans: 39.5 °C

###

We begin with a simple list: items and their reported folding enthalpy.
Test: folding enthalpy; higher = less favourable; fluorescence melt of hairpins on a sequencing array, two-state fit
Conditions: sodium 0.088 M
Entry rule: numbers only, all in kcal/mol.

CGTCCGGAAACGGAAACG ((((((....)))..))): -20.9

Q: I would be grateful if you could share the reported folding enthalpy for GGTGACCGAAAGGTTACC (((.(((....))).))) .
Ans: -40

Q: Request: GCATAGCGAAAGCCTTGC (((..((....))..)))
Ans: -13.9

Q: Try GGCATAGAAATATGCC ((((((....)))))) next.
Ans: -42.2

Q: Consider next the sequence GTCGCGCCGAAAGGCGAC (((..(((....)))))) in the same way.
Ans: -7.69

Q: Moving on to GCGAAGCCGAAAGGCCGC (((..(((....))))))
Ans: -20.2
